pKi data for Angiotensin-converting enzyme 2 (Bos taurus) follow.
Where a SMILES comes first, the peptide text is derived from it.
Please report pKi as the negative decimal logarithm of the molar concentration, giving only the number.

Request: API: value(readout=pKi, system=Angiotensin-converting enzyme 2 (Bos taurus)) for record CC[C@H](C)[C@H](NC(=O)[C@H](Cc1ccc(O)cc1)NC(=O)[C@@H](N)C(C)C)C(=O)N[C@@H](Cc1c[nH]cn1)C(=O)N1CCC[C@H]1C(=O)N[C@@H](Cc1ccccc1)C(=O)N[C@@H](Cc1c[nH]cn1)C(=O)N[C@@H](CC(C)C)C(=O)O [Ang(3-10)] (H-VYIHPFHL-OH)
Response: 7.73

Request: Note, next up: CC[C@H](C)[C@H](NC(=O)[C@H](Cc1ccc(O)cc1)NC(=O)[C@@H](NC(=O)[C@@H](N)CCCN=C(N)N)C(C)C)C(=O)N[C@@H](Cc1cnc[nH]1)C(=O)N1CCC[C@H]1C(=O)O [Ang(2-7)]
Response: 7.47

Request: Again, but for CCC(C)[C@H](NC(=O)[C@@H]1CCCN1C(=O)[C@H](Cc1cnc[nH]1)NC(=O)[C@@H](NC(=O)[C@H](Cc1ccc(O)cc1)NC(=O)[C@@H](NC(=O)[C@H](CCCN=C(N)N)NC(=O)CNC)C(C)C)[C@@H](C)CC)C(=O)O (stereo partly drawn) [Ang II Ile8, Sar1]
Response: 6.00

Request: Also need CC(C)[C@H](N)C(=O)N[C@@H](Cc1ccc(O)cc1)C(=O)O [Ang(3-4)] (H-Val-Tyr-OH) , thanks.
Response: 6.00

Request: Also check CC[C@H](C)[C@H](NC(=O)[C@H](Cc1ccc(O)cc1)NC(=O)[C@@H](N)C(C)C)C(=O)N[C@@H](Cc1cnc[nH]1)C(=O)N1CCC[C@H]1C(=O)O [Ang(3-7)] (H-VYIHP-OH)
Response: 7.98

====

Where a SMILES comes first, the peptide text is derived from it.
UniProt:Q58DD0: recorded Ki for assorted compounds
A number alone suffices; assume nM.

For orientation, consider the following solved cases.
| Compound | Measurement target | U | Ki |
| --- | --- | --- | --- |
| CC[C@H](C)[C@H](NC(=O)[C@H](Cc1ccc(O)cc1)NC(=O)[C@@H](N)C(C)C)C(=O)N[C@@H](Cc1c[nH]cn1)C(=O)N1CCC[C@H]1C(=O)N[C@@H](Cc1ccccc1)C(=O)N[C@@H](Cc1c[nH]cn1)C(=O)O [Ang(3-9)] (H-VYIHPFH-OH) | UniProt:Q58DD0 | nM | 7.17 |
| CC[C@H](C)[C@H](NC(=O)[C@H](Cc1ccc(O)cc1)NC(=O)[C@H](N)C(C)C)C(=O)N[C@@H](Cc1cnc[nH]1)C(=O)N1CCC[C@H]1C(=O)N[C@@H](Cc1ccccc1)C(=O)O | UniProt:Q58DD0 | nM | 1000 |
| CC[C@H](C)[C@H](NC(=O)[C@H](Cc1ccc(O)cc1)NC(=O)[C@@H](NC(=O)[C@H](CCCN=C(N)N)NC(=O)CNC)C(C)C)C(=O)N[C@@H](Cc1cnc[nH]1)C(=O)N1CCC[C@H]1C(=O)N[C@H](C(=O)O)C(C)O (some centres undefined) | UniProt:Q58DD0 | nM | 1000 |

Continue with the compound presented below.
Request: Give UniProt:Q58DD0 Ki for CC[C@H](C)[C@H](NC(=O)[C@H](Cc1ccc(O)cc1)NC(=O)[C@@H](N)C(C)C)C(=O)N[C@@H](Cc1cnc[nH]1)C(=O)O [Ang(3-6)] (H-VYIH-OH)
Response: 14.4

====

Where a SMILES comes first, the peptide text is derived from it. [ ]: non-standard residue; d: D form.
System: Angiotensin-converting enzyme 2 (Bos taurus) | Read-out: pKi
Please note pKi is a logarithmic value: minus log10 of concentration in mol/L. Answer with that number alone.

Example results:
| Compound | Observed result |
| --- | --- |
| CCCC[C@H](N)C(=O)N[C@H](Cc1ccccc1)C(=O)NCCCCCC(N)=O [NleYI-6-hexamide] | 7.86 |
| CC[C@H](C)[C@H](NC(=O)[C@H](Cc1ccc(O)cc1)NC(=O)[C@@H](NC(=O)[C@H](CCCNC(=N)N)NC(=O)[C@@H](N)CC(=O)O)C(C)C)C(=O)N[C@@H](Cc1cnc[nH]1)C(=O)N[C@H](C)C(=O)O [Ang(1-7) D-Ala7] (H-DRVYIH[dA]-OH) | 6.00 |

Okay, now this compound:
Request: Report pKi for CC[C@H](C)[C@H](NC(=O)[C@H](Cc1ccc(O)cc1)NC(=O)[C@@H](N)C(C)C)C(=O)O [Ang(3-5)] (H-Val-Tyr-Ile-OH) please.
Response: 8.00

====

Entries with reported Ki on Angiotensin-converting enzyme 2 (Bos taurus, UniProt Q58DD0)
Sequence (Q58DD0 whole entry): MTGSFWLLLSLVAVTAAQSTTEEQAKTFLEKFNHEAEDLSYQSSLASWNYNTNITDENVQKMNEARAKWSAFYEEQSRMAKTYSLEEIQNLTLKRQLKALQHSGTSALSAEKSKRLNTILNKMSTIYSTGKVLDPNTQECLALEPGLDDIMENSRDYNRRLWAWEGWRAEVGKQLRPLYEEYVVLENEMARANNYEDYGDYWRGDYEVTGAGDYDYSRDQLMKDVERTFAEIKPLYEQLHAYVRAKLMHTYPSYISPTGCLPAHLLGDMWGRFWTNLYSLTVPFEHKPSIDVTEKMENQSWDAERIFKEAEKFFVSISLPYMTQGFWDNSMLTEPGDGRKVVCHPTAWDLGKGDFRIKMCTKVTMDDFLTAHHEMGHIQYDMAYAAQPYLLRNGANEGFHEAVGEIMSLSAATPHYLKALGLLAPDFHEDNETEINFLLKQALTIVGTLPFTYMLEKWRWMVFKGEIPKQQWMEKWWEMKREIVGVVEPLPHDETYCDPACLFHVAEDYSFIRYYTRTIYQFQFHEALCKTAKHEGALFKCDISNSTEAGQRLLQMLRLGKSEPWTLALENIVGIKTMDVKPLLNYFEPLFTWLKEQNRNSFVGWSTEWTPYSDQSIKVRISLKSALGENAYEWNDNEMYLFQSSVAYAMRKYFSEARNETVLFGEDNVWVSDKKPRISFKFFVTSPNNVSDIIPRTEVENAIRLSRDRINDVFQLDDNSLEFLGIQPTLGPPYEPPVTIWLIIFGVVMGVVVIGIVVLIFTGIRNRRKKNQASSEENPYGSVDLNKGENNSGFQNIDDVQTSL
Where a SMILES comes first, the peptide text is derived from it.
Reply with just the number (in nM).

Consider the worked cases shown below.
| Compound | Measurement target | Ki (nM) |
| --- | --- | --- |
| CC[C@H](C)[C@H](NC(=O)[C@@H](N)Cc1ccc(O)cc1)C(=O)N[C@@H](Cc1cnc[nH]1)C(=O)N1CCC[C@H]1C(=O)N[C@@H](Cc1ccccc1)C(=O)O [Ang(4-8)] (H-YIHPF-OH) | Angiotensin-converting enzyme 2 (Bos taurus, UniProt Q58DD0) | 1000 |
| CC[C@H](C)[C@H](NC(=O)[C@H](Cc1ccc(O)cc1)NC(=O)[C@@H](NC(=O)[C@H](CCCNC(=N)N)NC(=O)[C@@H](N)CC(=O)O)C(C)C)C(=O)N[C@@H](Cc1c[nH]cn1)C(=O)N1CCC[C@H]1C(=O)O | Angiotensin-converting enzyme 2 (Bos taurus, UniProt Q58DD0) | 1000 |

Could you now look at the following compound, please?
Request: # input compound: CC[C@H](C)[C@H](NC(=O)[C@H](Cc1ccc(O)cc1)NC(=O)[C@@H](N)C(C)C)C(=O)N[C@@H](Cc1cnc[nH]1)C(=O)N1CCC[C@H]1C(=O)N[C@@H](Cc1ccccc1)C(=O)N[C@@H](Cc1cnc[nH]1)C(=O)N[C@@H](CC(C)C)C(=O)N[C@H](C(=O)O)C(C)C [Ang(3-11)] (H-VYIHPFHLV-OH) ; wanted: its Ki
Response: 117
